Data credit: PubChem BioAssay AID2060893

# Tested on: K86415-001-R-J1-PDC complex spheroids, viability
# Measurement notes: Anticancer human tumor K86415-001-R-J1-PDC patient-derived lung adenocarcinoma cell line growth inhibition [RAS]
# Condition label: second compound 10 µM; first compound 3.16 µM; active compounds read low
# Text: RAS pathway inhibitors in Combinations in Complex Spheroids A high-throughput screen of multi-cell type tumor spheroids was designed to identify active combinations of RAS pathway inhibitors and targeted small molecules. Complex spheroids include a stromal component modeled by human endothelial cells (HUVEC) and fibroblasts modeled by human mesenchymal stem cells (MSCs). […] Compounds. […] If the clinical Cmax for an agent had not been determined, the highest concentration tested was 10 microM. […]
Recorded viability, T/C by entry
Quick reminder: number only, in %, skip the unit.

Here's what some known entries look like.
NC1c2ccccc2OC12CCN(c1cnc3c(N4CCCc5ncccc54)n[nH]c3n1)CC2 (stereo not drawn) + C#Cc1c(F)ccc2cc(O)cc(-c3ncc4c(N5CC6CCC(C5)N6)nc(OCC56CCCN5CC(F)C6)nc4c3F)c12    4
Cc1nc(N2CCC3(CC2)COC(C)C3N)c(CO)nc1Sc1ccnc(N)c1Cl (stereo not drawn) + C#Cc1c(F)ccc2cc(O)cc(-c3ncc4c(N5CC6CCC(C5)N6)nc(OCC56CCCN5CC(F)C6)nc4c3F)c12    3.83

Now let's try a different one.
Q. viability, T/C for CCC(CC)c1cc(NC2CCC(N)C2)n2nccc2n1 (stereo not drawn) + C#Cc1c(F)ccc2cc(O)cc(-c3ncc4c(N5CC6CCC(C5)N6)nc(OCC56CCCN5CC(F)C6)nc4c3F)c12 ?
A. 2.78

====

# System: K86415-001-R-J1-PDC complex spheroids, viability
# Measurement notes: Anticancer human tumor K86415-001-R-J1-PDC cell line growth inhibition [RAS];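 note: spheroids exposed to agents for seven days before readout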
# Condition label: second compound 0.000949 µM; first compound 0.1 µM; active compounds read low
Test readout: viability, T/C (%)
Quick reminder: number only, in %, skip the unit.

Nc1ccn(C2OC(CO)C(O)C2(F)F)c(=O)n1 (stereo not drawn) + CCn1c(-c2cccnc2C(C)OC)c2c3cc(ccc31)N1CCOC(CC(NC(=O)C(C(C)C)N(C)C(=O)C3(F)CCN(C(=O)C#CC(C)(C)N(C)C)CC3)C(=O)N3CCCC(N3)C(=O)OCC(C)(C)C2)C1    27
CCN1CCN(Cc2ccc(Nc3ncc(F)c(-c4cc(F)c5nc(C)n(C(C)C)c5c4)n3)nc2)CC1 + CCn1c(-c2cccnc2C(C)OC)c2c3cc(ccc31)N1CCOC(CC(NC(=O)C(C(C)C)N(C)C(=O)C3(F)CCN(C(=O)C#CC(C)(C)N(C)C)CC3)C(=O)N3CCCC(N3)C(=O)OCC(C)(C)C2)C1    30.3
CC(C)NCC(C(=O)N1CCN(c2ncnc3c2C(C)CC3O)CC1)c1ccc(Cl)cc1 (stereo not drawn) + CCn1c(-c2cc(N3CCN(C)CC3)cnc2C(C)OC)c2c3cc(ccc31)-c1csc(n1)CC(NC(=O)C1CC1C)C(=O)N1CCCC(N1)C(=O)OCC(C)(C)C2    48.3
C[C@@H](NC(=O)c1ncnc(N)c1Cl)c1ncc(C(=O)Nc2cc(C(F)(F)F)c(Cl)cn2)s1 + CCn1c(-c2cc(N3CCN(C)CC3)cnc2C(C)OC)c2c3cc(ccc31)-c1csc(n1)CC(NC(=O)C1CC1C)C(=O)N1CCCC(N1)C(=O)OCC(C)(C)C2    62.2
CC1(O)CCCC1n1c(=O)c(C(F)F)cc2cnc(NC3CCN(S(C)(=O)=O)CC3)nc21 (stereo not drawn) + CCn1c(-c2cccnc2C(C)OC)c2c3cc(ccc31)N1CCOC(CC(NC(=O)C(C(C)C)N(C)C(=O)C3(F)CCN(C(=O)C#CC(C)(C)N(C)C)CC3)C(=O)N3CCCC(N3)C(=O)OCC(C)(C)C2)C1    32.6

Q. viability, T/C for NC1c2ccccc2OC12CCN(c1cnc3c(N4CCCc5ncccc54)n[nH]c3n1)CC2 (stereo not drawn) + CCn1c(-c2cccnc2C(C)OC)c2c3cc(ccc31)N1CCOC(CC(NC(=O)C(C(C)C)N(C)C(=O)C3(F)CCN(C(=O)C#CC(C)(C)N(C)C)CC3)C(=O)N3CCCC(N3)C(=O)OCC(C)(C)C2)C1 ?
A. 8.22

Q. viability, T/C for CCC(CC)c1cc(NC2CCC(N)C2)n2nccc2n1 (stereo not drawn) + CCn1c(-c2cc(N3CCN(C)CC3)cnc2C(C)OC)c2c3cc(ccc31)-c1csc(n1)CC(NC(=O)C1CC1C)C(=O)N1CCCC(N1)C(=O)OCC(C)(C)C2 ?
A. 48.5

Q. viability, T/C for C[C@@H](NC(=O)c1ncnc(N)c1Cl)c1ncc(C(=O)Nc2cc(C(F)(F)F)c(Cl)cn2)s1 + CCn1c(-c2cccnc2C(C)OC)c2c3cc(ccc31)N1CCOC(CC(NC(=O)C(C(C)C)N(C)C(=O)C3(F)CCN(C(=O)C#CC(C)(C)N(C)C)CC3)C(=O)N3CCCC(N3)C(=O)OCC(C)(C)C2)C1 ?
A. 55.7

====

# Tested on: K86415-001-R-J1-PDC complex spheroids, viability
# Measurement notes: Anticancer human tumor K86415-001-R-J1-PDC cell line growth inhibition [RAS]; active = viability on the fitted dose curve at most 10% of control; inactive = the rest;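 note: spheroids exposed to agents for seven days before readout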
# Condition label: second compound 0.0316 µM; first compound 10 µM
Valid outcomes are listed here; reply with one: True = active, False = inactive

For orientation, consider the following solved cases.
NC1c2ccccc2OC12CCN(c1cnc3c(N4CCCc5ncccc54)n[nH]c3n1)CC2 (stereo unspecified) + C#Cc1c(F)ccc2cc(O)cc(-c3ncc4c(N5CC6CCC(C5)N6)nc(OCC56CCCN5CC(F)C6)nc4c3F)c12    False
CCC(CC)c1cc(NC2CCC(N)C2)n2nccc2n1 (stereo unspecified) + C=CC(=O)N1CCN(c2nc(OCC3CCCN3C)nc3c(F)c(-c4nc(N)cc(C)c4C(F)(F)F)c(Cl)cc23)C(C)C1    True

Q. Which outcome was entered for the molecule CC(Nc1ccc2c(c1)OCCn1cc(N3C(=O)OCC3C(F)F)nc1-2)C(N)=O (stereo unspecified) + C=CC(=O)N1CCN(c2nc(OCC3CCCN3C)nc3c(F)c(-c4nc(N)cc(C)c4C(F)(F)F)c(Cl)cc23)C(C)C1 in this test?
A. True

Q. Which outcome was entered for the molecule CC(Nc1ccc2c(c1)OCCn1cc(N3C(=O)OCC3C(F)F)nc1-2)C(N)=O (stereo unspecified) + C#Cc1c(F)ccc2cc(O)cc(-c3ncc4c(N5CC6CCC(C5)N6)nc(OCC56CCCN5CC(F)C6)nc4c3F)c12 in this test?
A. False

Q. Which outcome was entered for the molecule NC1c2ccccc2OC12CCN(c1cnc3c(N4CCCc5ncccc54)n[nH]c3n1)CC2 (stereo unspecified) + C=CC(=O)N1CCN(c2nc(OCC3CCCN3C)nc3c(F)c(-c4nc(N)cc(C)c4C(F)(F)F)c(Cl)cc23)C(C)C1 in this test?
A. True

Q. Which outcome was entered for the molecule CC(C)NCC(C(=O)N1CCN(c2ncnc3c2C(C)CC3O)CC1)c1ccc(Cl)cc1 (stereo unspecified) + C=CC(=O)N1CCN(c2nc(OCC3CCCN3C)nc3c(F)c(-c4nc(N)cc(C)c4C(F)(F)F)c(Cl)cc23)C(C)C1 in this test?
A. True

Q. Which outcome was entered for the molecule C[C@@H](NC(=O)c1ncnc(N)c1Cl)c1ncc(C(=O)Nc2cc(C(F)(F)F)c(Cl)cn2)s1 + C#Cc1c(F)ccc2cc(O)cc(-c3ncc4c(N5CC6CCC(C5)N6)nc(OCC56CCCN5CC(F)C6)nc4c3F)c12 in this test?
A. False

Q. Which outcome was entered for the molecule CC1(O)CCCC1n1c(=O)c(C(F)F)cc2cnc(NC3CCN(S(C)(=O)=O)CC3)nc21 (stereo unspecified) + C=CC(=O)N1CCN(c2nc(OCC3CCCN3C)nc3c(F)c(-c4nc(N)cc(C)c4C(F)(F)F)c(Cl)cc23)C(C)C1 in this test?
A. False

Q. Which outcome was entered for the molecule CC1(O)CCCC1n1c(=O)c(C(F)F)cc2cnc(NC3CCN(S(C)(=O)=O)CC3)nc21 (stereo unspecified) + C#Cc1c(F)ccc2cc(O)cc(-c3ncc4c(N5CC6CCC(C5)N6)nc(OCC56CCCN5CC(F)C6)nc4c3F)c12 in this test?
A. True

Q. Which outcome was entered for the molecule Cc1nc(N2CCC3(CC2)COC(C)C3N)c(CO)nc1Sc1ccnc(N)c1Cl (stereo unspecified) + C=CC(=O)N1CCN(c2nc(OCC3CCCN3C)nc3c(F)c(-c4nc(N)cc(C)c4C(F)(F)F)c(Cl)cc23)C(C)C1 in this test?
A. True

Q. Which outcome was entered for the molecule Cc1nc(N2CCC3(CC2)COC(C)C3N)c(CO)nc1Sc1ccnc(N)c1Cl (stereo unspecified) + C#Cc1c(F)ccc2cc(O)cc(-c3ncc4c(N5CC6CCC(C5)N6)nc(OCC56CCCN5CC(F)C6)nc4c3F)c12 in this test?
A. False
